Each record here notes measured % B7 binding activity.
- SUBJECT_OF_TEST: B7 antigen (B7-1, CD80) expressed on cells (human) (UniProt P33681)
- Sequence (P33681 35-288): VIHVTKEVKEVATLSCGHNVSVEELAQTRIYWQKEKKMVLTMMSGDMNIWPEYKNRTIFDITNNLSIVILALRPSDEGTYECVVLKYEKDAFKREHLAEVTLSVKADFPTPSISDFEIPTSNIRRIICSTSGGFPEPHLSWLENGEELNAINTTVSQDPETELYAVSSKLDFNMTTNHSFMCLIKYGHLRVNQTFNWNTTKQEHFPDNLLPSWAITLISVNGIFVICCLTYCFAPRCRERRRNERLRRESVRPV
- ASSAY_PROCEDURE: B7-1+ CHO cell enzyme immunoassay; binding activity relative to CTLA4Ig, from the concentrations giving the same A450
Supply the numeric figure in %, leaving out any unit text.

Known results for binders:
- BINDER: "CTLA4/CD28Ig hybrid fusion protein HS4-B (Fc fusion, not shown: a dimerising Fc or GST) NKILVKQSPMLVAYDNAYNLSCKYSYNLFSREFRASLHKGLDSAVEVCVVYGNYSQQLQVYSKTGFNCDGKLGNESVTFYLQNLYVNQTDIYFCKIEVMYPPPYLDNEKSNGTIIYVIDPEPCPDSD"
  % B7 binding activity / %: 5
- BINDER: "CTLA4/CD28Ig hybrid fusion protein HS7 (Fc fusion, not shown: a dimerising Fc or GST) NKILVKQSPMLVAYDNAYNLSCKYASPGKATEFRASLHKGLDSAVEVCVVYGNYSQQLQVYSKTGFNCDGKLGNESVTFYLQNLYVNQTDIYFCKIELMYPPPYYLGIGNGTQIYVIDPEPCPDSD"
  % B7 binding activity / %: 44
- BINDER: "CTLA4/CD28Ig hybrid fusion protein HS9 (Fc fusion, not shown: a dimerising Fc or GST) NKILVKQSPMLVAYDNAYNLSCKYASPGKATEFRASLHKGLDSAVEVCVVYGNYSQQLQVYSKTGFNCDGKLGNESVTFYLQNLYVNQTDIYFCKIEVMYPPPYLDNEKSNGTIIYVIDPEPCPDSD"
  % B7 binding activity / %: 5

Okay, next one:
Please give the measured % B7 binding activity for this binder: CTLA4/CD28Ig hybrid fusion protein HS8 (Fc fusion, not shown: a dimerising Fc or GST) NKILVKQSPMLVAYDNAYNLSCKYASPGKATEFRASLHKGLDSAVEVCVVYGNYSQQLQVYSKTGFNCDGKLGNESVTFYLQNLYVNQTDIYFCKIELMYPPPYYLGIGNGTQIHVKGKHLCPS
56
